Source listed as patent US20060062761A1.

Listing: IC50 of selected binders
Target: HLA-DR DRB1*0701 on fixed MOU (MANN) cells (human)
Assay: competition
Settings: modification not given
I only need the number, in µM, no unit after it.

[
  {
    "Binder": "SILAVRKYFQRITLY [39]",
    "Unit Abbreviation": "µM",
    "IC50": 60
  }
]

Data request: Suppose we examine the binder AEIMRSFSLSTNLQE [49] ; what IC50 value has been reported?
Data returned: 15
